Where these numbers come from: ChEMBL document CHEMBL1152498

Tested on: NCI-H358
assay summary: Cytotoxicity against human NCI-H358 cells after 72 hrs by MTT assay
Format: functional, cell-based
study conditions: NCI-H358, 72 h
property measured: log10 of IC50 (log10 of the value in nM)
Answers are given as log10 of IC50 in nM.

CCOc1ccc2c(c1)SC1=N/C(=C\c3oc4ccccc4[n+]3C)C=C(C)N12.[O-][Cl+3]([O-])([O-])[O-] | 2.00
CC1=C/C(=C/c2sc3ccccc3[n+]2C)N=C2Sc3cc(OCCO)ccc3N12.[O-][Cl+3]([O-])([O-])[O-] | 3.32
CC1=C/C(=C/c2oc3ccccc3[n+]2C)C(C#N)=C2Sc3ccccc3N12.[O-][Cl+3]([O-])([O-])[O-] | 3.38
COc1ccc2c(c1)SC1=N/C(=C\c3oc4ccccc4[n+]3C)C=C(C)N12.[O-][Cl+3]([O-])([O-])[O-] | 2.90
COc1ccc2c(c1)SC1=N/C(=C\c3sc4ccccc4[n+]3C)C=C(C)N12.[O-][Cl+3]([O-])([O-])[O-] | 2.78

Attention now shifts to the item below.
Q: Please report the recorded log10 of IC50 for `CC1=C/C(=C/c2oc3ccccc3[n+]2C)N=C2Sc3cc(Cl)ccc3N12.[O-][Cl+3]([O-])([O-])[O-]` .
Result: 3.04
